Hi there, I'd appreciate the recorded pKi for every entry that follows.
target: neuronal nicotinic receptors; assay: Displacement of [3H]-MCC or [3H]-cytisine from neuronal nicotinic receptors, whole rat brain membranes; format: binding; conditions: Table 1; read-out: Nicotinic Receptor Ki
Structures can show the parent of a compound that is named as a salt.
One number for each entry, as −log10 of the molar value.

Cc1cc([C@H]2CC[C@H](C)N2C)on1 (relative stereo) [Example 25, oxalate salt]; 6.54
Cc1cc([C@@H]2CCN2C)on1 [Example 41, hydrochloride]; 8.60
Cc1cc([C@H]2C[C@H](CF)CN2C)on1 (relative stereo) [Example 22, hydrochloride]; 6.74
Cc1cc([C@H]2C[C@H](O)CN2C)on1 (relative stereo) [Example 21, oxalate salt]; 6.94

Next compound, please.
Entry Cc1cc([C@H]2CCCN2C)on1 [Example 16, hydrochloride salt] — recorded pKi = 7.26

====

biological target: neuronal nicotinic receptors; assay: Displacement of [3H]-MCC or [3H]-cytisine from neuronal nicotinic receptors, whole rat brain membranes; type: binding; settings: Table 1; read-out: Nicotinic Receptor Ki
Where a name gives a salt, the structure may show the parent alone.
Ki strictly under 20 nM means yes; at 20 nM or over means no.

Example results:
CCCCc1cc([C@@H]2CCCN2C)on1 [Example 10, hydrochloride salt]; no
Cc1cc([C@H]2CCCCN2C)on1 [Example 39, hydrochloride]; no
Cc1cc([C@@H]2CCCCN2)on1 [Example 40, hydrochloride]; no

Consider Cc1cc([C@H]2CCCCN2)on1 [Example 38, hydrochloride] . Does its Ki lie strictly below 20 nM? no

Consider COC(=O)C1=CCCN(C)C1 [Arecoline, reference compound] . Does its Ki lie strictly below 20 nM? no

Consider CCN1C[C@H](C)C[C@H]1c1cc(C)no1 [Example 28c, hydrochloride] . Does its Ki lie strictly below 20 nM? no

Consider Cc1cc([C@H]2CCCN2)on1 [Example 15] . Does its Ki lie strictly below 20 nM? yes

Consider CCCc1cc([C@@H]2CCCN2C)on1 [Example 9] . Does its Ki lie strictly below 20 nM? yes

Consider Cc1cc([C@H]2CCCN2)sn1 [Example 19, hydrochloride] . Does its Ki lie strictly below 20 nM? no

Consider Cc1cc([C@@H]2CCCN2C)[nH]n1 [Example 43, hydrochloride] . Does its Ki lie strictly below 20 nM? no

====

test system: neuronal nicotinic cholinergic channels in PC12 cells; assay: Cholinergic channel activator action in PC12 cells, whole-cell patch-clamp; format: cell-based, rat; conditions: PC12 cells; mean ± S.E.M.
Property Label: pEC50
Give bare numbers, as −log10 of the molar value.

CN1CCCC1c1cccnc1 (single isomer, unassigned; (-)) [(-)-Nicotine]; 4.28

Next molecule, please.
Entry Cc1cc([C@@H]2CCCN2C)on1.O=C(O)C(=O)O [Example 2, oxalate salt] — recorded pEC50 = 3.68

====

molecular target: neuronal nicotinic receptors; test: Displacement of [3H]-MCC or [3H]-cytisine from neuronal nicotinic receptors, whole rat brain membranes; assay type: binding; settings: Table 1; hydrochloride salt; read-out: Nicotinic Receptor Ki
Structures can show the parent of a compound that is named as a salt.
Property Label: pKi
One number for each entry, as −log10 of the molar value.

Example entries and their recorded answers appear below.
CN1CCC[C@H]1c1cc(Cc2ccccc2)no1 [Example 8, hydrochloride salt]; 7.89
Cc1cc([C@@H]2CCCN2C)on1 [Example 11, hydrochloride salt]; 8.52

Next compound, please.
Observed pKi, neuronal nicotinic receptors, CCc1cc([C@@H]2CCCN2C)on1 [Example 12, hydrochloride salt] : 8.15

Sourced from patent US5409946A
